Reported pKi by item:
# assay text: Displacement of [3H]-PN200-110 from L-type calcium channel dihydropyridine binding site in Wistar rat cortex homogenate after 60 mins by liquid scintillation spectometric analysis
# Type: tissue-based
pKi: −log10 of the molar value.
recorded metric: pKi

COC(=O)C1=C(C)NC(C)=C(C(=O)OC)C1c1c(Cl)nc2sc(C)cn12 :: 3.47
COC(=O)C1=C(C)NC(C)=C(C(=O)OC)C1c1c(-c2cccnc2)nc2sc(C)cn12 :: 7.23
COC(=O)C1=C(C)NC(C)=C(C(=O)OC)C1c1c(-c2ccsc2)nc2sccn12 :: 6.13
COC(=O)C1=C(C)NC(C)=C(C(=O)OC)C1c1c(-c2cc(OC)cc(OC)c2)nc2sccn12 :: 6.39
COC(=O)C1=C(C)NC(C)=C(C(=O)OC)C1c1c(C(F)(F)F)nc2sccn12 :: 6.28
CCOC(=O)C1=C(C)NC(C)=C(C(=O)OCC)C1c1c(-c2cc(OC)ccc2OC)nc2sccn12 :: 6.77
COC(=O)C1=C(C)NC(C)=C(C(=O)OC)C1c1c(-c2ccc(OC)c(OC)c2)nc2sccn12 :: 6.96
COC(=O)C1=C(C)NC(C)=C(C(=O)OC)C1c1c(-c2cc(OC)ccc2OC)nc2sccn12 :: 6.80
COC(=O)C1=C(C)NC(C)=C(C(=O)OC)C1c1c(Cl)nc2scc(C)n12 :: 4.46
COC(=O)C1=C(C)NC(C)=C(C(=O)OC)C1c1ccccc1[N+](=O)[O-] :: 8.72
COC(=O)C1=C(C)NC(C)=C(C(=O)OC)C1c1c(-c2ccccc2C(F)(F)F)nc2sccn12 :: 4.86
COC(=O)C1=C(C)NC(C)=C(C(=O)OC)C1c1c(-c2cccc(OC)c2)nc2sccn12 :: 6.48
